measured target: Cdk9/cyclinT1 (Homo sapiens)
Sequence (P50750 whole entry): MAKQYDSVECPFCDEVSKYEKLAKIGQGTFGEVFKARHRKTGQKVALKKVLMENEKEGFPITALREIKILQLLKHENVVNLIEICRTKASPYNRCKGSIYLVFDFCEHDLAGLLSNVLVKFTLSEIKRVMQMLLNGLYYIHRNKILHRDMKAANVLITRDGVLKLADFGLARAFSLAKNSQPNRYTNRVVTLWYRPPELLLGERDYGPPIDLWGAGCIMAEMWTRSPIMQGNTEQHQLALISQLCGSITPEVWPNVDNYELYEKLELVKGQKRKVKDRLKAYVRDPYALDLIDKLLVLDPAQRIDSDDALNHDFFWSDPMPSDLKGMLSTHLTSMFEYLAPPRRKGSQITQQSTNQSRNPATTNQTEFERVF
Sequence (O60563 whole entry partner): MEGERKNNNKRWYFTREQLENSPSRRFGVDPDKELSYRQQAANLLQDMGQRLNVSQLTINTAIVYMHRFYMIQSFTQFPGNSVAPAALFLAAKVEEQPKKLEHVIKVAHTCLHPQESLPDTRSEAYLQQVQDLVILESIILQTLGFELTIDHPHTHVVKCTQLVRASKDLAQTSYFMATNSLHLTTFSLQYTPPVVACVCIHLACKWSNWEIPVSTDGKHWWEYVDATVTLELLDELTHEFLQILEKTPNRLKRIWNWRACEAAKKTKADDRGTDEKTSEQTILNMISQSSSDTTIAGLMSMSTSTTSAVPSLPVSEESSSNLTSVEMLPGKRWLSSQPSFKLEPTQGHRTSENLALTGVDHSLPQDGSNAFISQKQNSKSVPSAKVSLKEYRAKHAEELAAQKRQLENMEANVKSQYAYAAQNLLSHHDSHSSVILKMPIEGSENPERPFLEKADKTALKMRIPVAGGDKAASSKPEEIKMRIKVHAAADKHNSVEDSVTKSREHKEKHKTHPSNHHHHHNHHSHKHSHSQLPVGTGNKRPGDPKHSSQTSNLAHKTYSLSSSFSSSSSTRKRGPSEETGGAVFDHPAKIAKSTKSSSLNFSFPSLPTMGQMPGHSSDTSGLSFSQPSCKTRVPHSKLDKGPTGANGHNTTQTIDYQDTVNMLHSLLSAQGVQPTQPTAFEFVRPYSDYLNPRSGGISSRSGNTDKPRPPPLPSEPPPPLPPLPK
procedure summary: Cdk9/cyclinT1 IMAP Protocol (fluorescence polarization kinase assay)
test context: Cdk9_cyclinT1_IC50, Table V; generated using one of the two Cdk9/cyclinT1 assays (IMAP or Alpha Screen), not stated which; ATP 6 uM
As shown below, each of these compounds has a reported IC50 value.
quantity kind: IC50 (nM)

In [3]: df
Out[3]:
                                    compound  quantity_kind  sign_qualifier  value_reported
 0  O=C(Nc1cc(-c2cccc(NCC3CCOCC3)n2)c(Cl)cn1)[C@@H]1CCNC1           IC50               <               8
 1  O=C(Nc1cc(-c2cccc(NCC3CCOCC3)n2)c(Cl)cn1)[C@H]1CNC[C@@H](C(F)(F)F)C1 (racemic) [Example 148]           IC50               <               8
 2  CC1(C)COC[C@H](CNc2nc(-c3cc(NC(=O)[C@@H]4CCCNC4)ncc3Cl)ccc2F)O1 (single isomer, unassigned)           IC50               =               3
 3  COC(=O)N1CCC[C@H](C(=O)Nc2cc(-c3cccc(NCC4CCS(=O)(=O)CC4)n3)c(Cl)cn2)C1           IC50               <               8
 4  O=C(Nc1cc(-c2nc(NCC3CCOCC3)ccc2Cl)c(Cl)cn1)C1CCOCC1           IC50               =              10
 5  O=C(Nc1cc(-c2nc(NCC3CCOCC3)ccc2F)c(Cl)cn1)[C@@H]1CCCNC1           IC50               =               1
 6  N[C@H]1CC[C@@H](C(=O)Nc2cc(-c3cccc(NCC4CCOCC4)n3)c(Cl)cn2)C1           IC50               <               8
 7  C[C@@H](Nc1cccc(-c2cc(NC(=O)[C@@H]3CCCNC3)ncc2Cl)n1)C1CCCCC1           IC50               =              15
 8  COC(=O)N[C@H]1CC[C@@H](C(=O)Nc2cc(-c3nc(NCC4CCOCC4)ccc3Cl)c(Cl)cn2)C1           IC50               <               8
 9  C[C@H]1CC[C@H](C(=O)Nc2cc(-c3ccc(F)c(NCC4CCOCC4)n3)c(Cl)cn2)CN1 (single isomer, unassigned)           IC50               =               3
10  CS(=O)(=O)N1CCC[C@H](C(=O)Nc2cc(-c3nc(NCC4CCOCC4)ccc3Cl)c(Cl)cn2)C1           IC50               <               8
11  CC[C@H]1CC[C@H](C(=O)Nc2cc(-c3cccc(NCC4CCOCC4)n3)c(Cl)cn2)CN1 (single isomer, unassigned)           IC50               =               9
12  COCCCNc1cccc(-c2cc(NC(=O)[C@@H]3CCCNC3)ncc2Cl)n1           IC50               =              21
13  O=C(Nc1cc(-c2cccc(NCc3cccc(F)c3)n2)c(Cl)cn1)[C@@H]1CCCNC1           IC50               <               8
14  CO[C@H]1CNC[C@@H]1C(=O)Nc1cc(-c2nc(NCC3CCOCC3)ccc2Cl)c(Cl)cn1           IC50               <               8
15  O=C(Nc1cc(-c2cccc(NC[C@@H]3CCCOC3)n2)c(Cl)cn1)[C@@H]1CCCNC1 (single isomer, unassigned)           IC50               <               8
16  O=C(Nc1cc(-c2cccc(NCC3CCOCC3)n2)c(Cl)cn1)[C@@H]1CCCN(CCF)C1           IC50               =             164
17  COC(=O)N1CCC[C@H](C(=O)Nc2cc(-c3nc(NCC4CCOCC4)ccc3Cl)c(Cl)cn2)C1           IC50               <               8
18  O=C(Nc1cc(-c2ccc(F)c(NCC3CCOCC3)n2)c(Cl)cn1)C1CNCCOC1 (stereo not shown)           IC50               =               1
